Tested on: Escherichia coli
Assay: Antimicrobial activity against acrAB-deficient Escherichia coli TG1 harboring plasmid pEX19Gm by agar dilution method
Type: functional
Where a SMILES comes first, the peptide text is derived from it. Bridges are numbered along the chain shown (N, C = ends). [ ]: non-standard residue; d: D form. The star is where a group is joined. NMePhe(4-NMe2) = CN[C@@H](Cc1ccc(N(C)C)cc1)C(=O)O; Pip(4-oxo) = O=C1CCN[C@H](C(=O)O)C1; Picolinoyl(3-OH) = O=C(c1ncccc1O)*; Phg = N[C@H](C(=O)O)c1ccccc1; dAbu = CC[C@@H](N)C(=O)O
Entries annotated with measured MIC

>  <compound>
CN(C)c1ccc(O)c2c1C[C@H]1C[C@H]3[C@H](N(C)C)C(O)=C(C(N)=O)C(=O)[C@@]3(O)C(O)=C1C2=O [MINOCYCLINE]

>  <target under test>
Escherichia coli

>  <property label>
MIC

>  <measured>
0.12 µg/mL

$$$$
>  <compound>
CCN1CCN(C(=O)N[C@@H](C(=O)N[C@@H]2C(=O)N3C(C(=O)O)=C(CSc4nnnn4C)CS[C@H]23)c2ccc(O)cc2)C(=O)C1=O [CEFOPERAZONE]

>  <target under test>
Escherichia coli

>  <property label>
MIC

>  <measured>
0.03 µg/mL

$$$$
>  <compound>
CO[C@H]1/C=C/O[C@@]2(C)Oc3c(C)c(O)c4c(O)c(c(/C=N/N5CCN(C)CC5)c(O)c4c3C2=O)NC(=O)/C(C)=C\C=C\[C@H](C)[C@H](O)[C@@H](C)[C@@H](O)[C@@H](C)[C@H](OC(C)=O)[C@@H]1C [RIFAMPIN]

>  <target under test>
Escherichia coli

>  <property label>
MIC

>  <measured>
8 µg/mL

$$$$

Look up MIC with Escherichia coli for this compound: COc1cc(Cc2cnc(N)nc2N)cc(OC)c1OC [TRIMETHOPRIM]
0.05 µg/mL

Value wanted: MIC (Escherichia coli) of entry CN(C)c1ccc2cc3ccc(N(C)C)cc3nc2c1 [ACRIDINE ORANGE]
128 µg/mL

What MIC appears in the records for this compound with Escherichia coli? CC(=O)O[C@H]1C[C@@]2(C)[C@@H](C[C@@H](O)[C@H]3[C@@]4(C)CC[C@@H](O)[C@@H](C)[C@@H]4CC[C@@]32C)/C1=C(\CCC=C(C)C)C(=O)O [FUSIDIC ACID]
2 µg/mL

Item CC[C@H]1NC(=O)[C@@H](NC(=O)c2ncccc2O)[C@@H](C)OC(=O)[C@H](c2ccccc2)NC(=O)[C@@H]2CC(=O)CCN2C(=O)[C@H](Cc2ccc(N(C)C)cc2)N(C)C(=O)[C@@H]2CCCN2C1=O [PRISTINAMYCIN 1A] ({Picolinoyl(3-OH)}-T[dAbu]P[NMePhe(4-NMe2)][Pip(4-oxo)][Phg]; ester 1-C) with Escherichia coli - MIC?
4 µg/mL

----------
Assay: Antimicrobial activity against aheB deficient kanamycin-resistant Aeromonas hydrophila subsp. hydrophila ATCC 7966 harboring plasmid pEX19Gm by agar dilution method in presence of 64 mg/L efflux pump inhibitor phenylalanine-arginine-beta-naphthylamide
Format: functional
property label: MIC

Example results:
>  <molecule>
CO/N=C(\C(=O)N[C@@H]1C(=O)N2C(C(=O)O)=C(COC(N)=O)CS[C@H]12)c1ccco1 [CEFUROXIME]

>  <measured>
0.25 µg/mL

$$$$
>  <molecule>
CO[C@H]1/C=C/O[C@@]2(C)Oc3c(C)c(O)c4c(O)c(c(/C=N/N5CCN(C)CC5)c(O)c4c3C2=O)NC(=O)/C(C)=C\C=C\[C@H](C)[C@H](O)[C@@H](C)[C@@H](O)[C@@H](C)[C@H](OC(C)=O)[C@@H]1C [RIFAMPIN]

>  <measured>
0.03 µg/mL

$$$$

Requested read-out: MIC. Entry: CC[n+]1c(-c2ccccc2)c2cc(N)ccc2c2ccc(N)cc21.[Br-] [HOMIDIUM BROMIDE]
64 µg/mL

State the recorded MIC for this entry: CCC[C@@H]1C[C@@H](C(=O)N[C@@H]([C@H]2O[C@H](SC)[C@H](O)[C@@H](O)[C@H]2O)[C@@H](C)O)N(C)C1 [LINCOMYCIN]
64 µg/mL

For the molecule shown here, CN(C)c1ccc(O)c2c1C[C@H]1C[C@H]3[C@H](N(C)C)C(O)=C(C(N)=O)C(=O)[C@@]3(O)C(O)=C1C2=O [MINOCYCLINE] , give the reported MIC.
0.25 µg/mL

Fill in the blank: the reported MIC of CN(C)c1ccc2cc3ccc(N(C)C)cc3nc2c1 [ACRIDINE ORANGE] is ____.
128 µg/mL

Need MIC, item CCN1CCN(C(=O)N[C@@H](C(=O)N[C@@H]2C(=O)N3C(C(=O)O)=C(CSc4nnnn4C)CS[C@H]23)c2ccc(O)cc2)C(=O)C1=O [CEFOPERAZONE]
0.06 µg/mL
